target: UniProtKB P02769; assay: Binding affinity to bovine serum albumin assessed as binding constant in absorption spectra by Benesie-Hildebrand plot analysis; format: ADME; details: cattle, isolated protein
Sequence (P02769 whole entry): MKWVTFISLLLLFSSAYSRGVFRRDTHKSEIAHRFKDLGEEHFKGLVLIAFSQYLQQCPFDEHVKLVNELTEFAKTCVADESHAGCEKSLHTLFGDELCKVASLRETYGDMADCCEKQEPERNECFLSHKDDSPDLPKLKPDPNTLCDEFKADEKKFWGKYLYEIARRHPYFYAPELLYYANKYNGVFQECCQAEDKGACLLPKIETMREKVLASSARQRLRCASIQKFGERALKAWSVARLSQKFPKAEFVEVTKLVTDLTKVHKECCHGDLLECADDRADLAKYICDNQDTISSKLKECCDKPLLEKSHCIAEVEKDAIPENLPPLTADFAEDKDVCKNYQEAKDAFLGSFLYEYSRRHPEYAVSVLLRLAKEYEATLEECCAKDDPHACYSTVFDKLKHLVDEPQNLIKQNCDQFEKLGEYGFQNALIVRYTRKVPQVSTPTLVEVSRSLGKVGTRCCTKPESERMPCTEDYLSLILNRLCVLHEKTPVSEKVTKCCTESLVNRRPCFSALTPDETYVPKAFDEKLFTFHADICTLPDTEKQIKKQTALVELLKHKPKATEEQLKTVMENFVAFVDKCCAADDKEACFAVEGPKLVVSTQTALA
As shown below, each of these compounds has a reported K value.
Give just the numeric value; ×10⁵ /M need not be written.

# structure, experimental.target, K [×10⁵ /M]
rows = [
    ("c1ccc2[nH]c(-c3ccc(Nc4nc(N5CCCC5)nc(N5CCOCC5)n4)cc3)nc2c1", "UniProtKB P02769", 1),
    ("Clc1ccc(-c2nc(Nc3ccc(-c4nc5ccccc5[nH]4)cc3)nc(N3CCOCC3)n2)cc1", "UniProtKB P02769", 1),
    ("c1ccc2[nH]c(-c3ccc(Nc4nc(NC5CCCCC5)nc(N5CCOCC5)n4)cc3)nc2c1", "UniProtKB P02769", 1),
]

Q: Which K value is on record for c1ccc(-c2nc(Nc3ccc(-c4nc5ccccc5[nH]4)cc3)nc(N3CCOCC3)n2)cc1 ?
A: 1.2
